Exercise: for every item that follows, state its recorded Emax.
Assayed System: LXR β (Homo sapiens)
Construct: comprising full-length LXR α (pCMX-hLXR α), LXR β (pCMX-hLXR β), or RXR α (pCMX-RXR); expressed in transfected cells; host or cells: CV-1 African Green Monkey kidney cells, transient transfection
Sequence (P55055 whole entry): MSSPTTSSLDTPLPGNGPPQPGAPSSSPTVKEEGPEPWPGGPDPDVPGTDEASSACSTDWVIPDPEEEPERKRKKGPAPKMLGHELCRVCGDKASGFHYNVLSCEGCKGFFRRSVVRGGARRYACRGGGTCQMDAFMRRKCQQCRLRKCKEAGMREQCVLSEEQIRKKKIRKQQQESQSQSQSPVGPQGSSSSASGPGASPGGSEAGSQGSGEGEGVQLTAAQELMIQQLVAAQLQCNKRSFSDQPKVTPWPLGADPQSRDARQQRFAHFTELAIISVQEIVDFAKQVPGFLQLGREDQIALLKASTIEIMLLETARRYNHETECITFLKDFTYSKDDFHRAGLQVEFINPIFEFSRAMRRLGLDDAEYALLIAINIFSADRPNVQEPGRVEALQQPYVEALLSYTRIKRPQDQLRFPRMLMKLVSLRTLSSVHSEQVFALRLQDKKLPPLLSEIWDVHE
Sequence (P19793 whole entry partner): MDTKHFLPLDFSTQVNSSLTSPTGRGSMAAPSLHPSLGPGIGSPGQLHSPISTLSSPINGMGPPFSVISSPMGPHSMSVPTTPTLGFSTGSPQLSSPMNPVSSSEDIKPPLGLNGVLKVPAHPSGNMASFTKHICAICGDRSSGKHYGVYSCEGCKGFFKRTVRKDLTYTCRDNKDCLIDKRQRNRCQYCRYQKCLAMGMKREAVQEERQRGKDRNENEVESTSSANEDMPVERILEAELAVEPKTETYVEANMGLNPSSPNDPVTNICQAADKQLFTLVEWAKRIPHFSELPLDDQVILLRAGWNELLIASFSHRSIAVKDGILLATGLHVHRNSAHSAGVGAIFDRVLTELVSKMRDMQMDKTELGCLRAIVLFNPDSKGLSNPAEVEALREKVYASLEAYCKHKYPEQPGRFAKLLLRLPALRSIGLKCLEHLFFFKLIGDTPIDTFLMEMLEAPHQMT
Assay: LXR/LXRE co-transfection assay (luciferase reporter, CV-1 cells)
Format: cell-based
Setup Conditions: CV-1, average percent efficacy, relative to control N-(3-((4-fluorophenyl)-(naphthalene-2-sulfonyl)amino)propyl)-2,2-dimethylpropionamide, read-out: % Eff(b)

Please review the following examples before continuing.
O=c1c2c(Cl)cccc2cc(-c2ccc(Oc3cnccn3)cc2)n1Cc1ccc(F)cc1F: > 90%
O=c1c2c(Cl)cccc2cc(-c2cc(-c3cc(C(F)(F)F)cc(C(F)(F)F)c3)co2)n1Cc1ccc(F)cc1F: > 90%
Cc1ccc(Cn2c(-c3ccc(Oc4ccccc4)cc3)cc3ccccc3c2=O)c(C)c1: > 90%
O=c1c2c(Cl)cccc2cc(-c2ccc(Oc3ccccc3)cc2)n1Cc1cccs1: > 90%

Would you mind giving Emax for every compound in the list below?
1. CCOc1ccc(-c2csc(-c3cc4cccc(Cl)c4c(=O)n3Cc3ccc(F)cc3F)c2)cc1Cl
2. Nc1ccc(-c2coc(-c3cc4cccc(Cl)c4c(=O)n3Cc3ccc(F)cc3F)c2)cc1C(F)(F)F
3. Cc1ccc(Cn2c(-c3ccc(Oc4ccccc4)cc3)cc3cccc(C)c3c2=O)cc1
4. O=c1c2c(Cl)cccc2cc(-c2ccc(Oc3ccccc3)cc2)n1CC1CCCCC1
5. Cc1cccc(-c2cc3ccccc3c(=O)n2Cc2ccccc2)c1
6. Cc1cccc(-c2cc3ccccc3c(=O)n2Cc2ccc(C)cc2C)c1

output:
> 90%
> 90%
40 to 90%
> 90%
40 to 90%
40 to 90%

Would you mind giving Emax for every compound in the list below?
1. CS(=O)(=O)c1ccc(-c2ccc(-c3cc4cccc(Cl)c4c(=O)n3Cc3ccc(F)cc3F)s2)cc1
2. O=c1c2c(Cl)cccc2cc(-c2ccc(Oc3ccccc3)cc2)n1Cc1ccc(F)cc1F
3. Cc1ccc(Cn2c(C#CC(C)(C)O)cc3ccccc3c2=O)c(C)c1

output:
1: > 90%; 2: > 90%; 3: 40 to 90%

input: Consider the compound Cc1ccc(Cn2c(-c3ccsc3)cc3ccccc3c2=O)c(C)c1 and give its measured Emax.
output: 40 to 90%
